System: TK-10
protocolDetails: NCI tumour cell line growth inhibition, 48 h
Activity calls are given as the source filed them. Rule as the data show it: active = GI50 up to about 1.1 µM and inactive = higher.
In this section we review reported GI50 values for a set of compounds.
measurementName: GI50

1. C[n+]1ccc(Nc2ccc(NC(=O)c3ccc(Nc4cc[n+](C)c5ccc([N+](=O)[O-])cc45)cc3[N+](=O)[O-])cc2)cc1    > 100 µM (inactive)
2. CC(=O)c1ccc(-c2ccc(C(C)=O)s2)s1    > 100 µM (inactive)
3. COC(=O)c1c2c(cc3c1CC1(Cc4ccccc4C1=O)C3)CCC2 (stereo not given)    51.3 µM (inactive)
4. CO[C@H]1SC[C@H](OC(C)=O)[C@H](OC(C)=O)[C@H]1OC(C)=O    > 100 µM (inactive)
5. COC1/C=C/C(C)C(C(C)C(OC)C(C)CCC(=O)C(C)C(CC(=O)O)OC)OC(=O)/C=C/C=C(\C)CC(OC)CC2=CC(=O)O[C@H](C2)C(C)C(OC)CC(OC)/C=C/C(C)C(OC)C1 (stereo not given in full)    0.433 µM (active)

====

Tested on: SK-MEL-28
protocolDetails: NCI tumour cell line growth inhibition, 48 h
Calls of active or inactive are those of the source. No stated cut-off is given here; in the data, active = GI50 up to about 1.1 µM and inactive = higher.
In this section we review reported GI50 values for a set of compounds.
measurementName: GI50

1) CCCNCCCCC(NC(C)=O)C(=O)NCc1ccccc1 (stereo not drawn)    > 100 µM (inactive)
2) CC1(C)N=c2c(ncn2CCCO)=C(C(N)=O)N1    > 100 µM (inactive)
3) COc1cc(/C=C/C(=O)C2(C(=O)/C=C/c3cc(OC)c(OC)c(OC)c3)CCCCC2)cc(OC)c1OC    46.3 µM (inactive)

====

Test system: UO-31
protocolDetails: NCI tumour cell line growth inhibition, 48 h
Calls of active or inactive are those of the source. No stated cut-off is given here; in the data, active = GI50 up to about 1.1 µM and inactive = higher.
measurementName: GI50

1) CCCCCC[C@@H]1CCC2C(CO)[C@@H](O)CC[C@@H]2C1 (stereo not given in full)    20.7 µM (inactive)
2) Brc1ccc(-c2[nH]c3ccccc3c2/N=N\c2ccccc2)cc1    16 µM (inactive)
3) CN(C)CCn1c2c3ccccc3ccc2c2oc(=O)c3ccccc3c21    1.61 µM (inactive)
4) COC(=O)Cc1c(/C=C/C(C)(C)n2cnc(CCN3C(=O)CCC3=O)c2)[nH]c2ccccc12    74.8 µM (inactive)
5) CN1N(c2ccccc2)C(=O)C2=NC=C(C#N)C(=N)C21C (stereo not given)    > 100 µM (inactive)

====

Tested on: SR
protocolDetails: NCI tumour cell line growth inhibition, 48 h
Activity calls are given as the source filed them. Cut-off read from the data, not from the text of the source: active = GI50 up to about 1.1 µM and inactive = higher.
In this section we review reported GI50 values for a set of molecules.
measurementName: GI50

1) COc1ccc(NC(=O)CC2S/C(=N\c3ccccc3C)NC2=O)c([N+](=O)[O-])c1 (centres undefined)    > 100 µM (inactive)
2) COc1cc2c(cc1O)NC(=O)[C@@H]1CCCN1C2=O    > 100 µM (inactive)
3) CCOC1OC(=O)c2cc3ccc4c(c3c(-c3ccc5c(c3)OCO5)c21)OCO4 (centres undefined)    2.04 µM (inactive)
4) COC(=O)C(=O)C(CC(=O)Nc1c(C)cccc1C)C(=O)OC (centres undefined)    > 100 µM (inactive)

====

System: LOX IMVI
protocolDetails: NCI tumour cell line growth inhibition, 48 h
The source made the active and inactive calls. No stated cut-off is given here; in the data, active = GI50 up to about 1.1 µM and inactive = higher.
In this section we review reported GI50 values for a set of compounds.
measurementName: GI50

1) Cc1nc2ccccc2[s+]c1-c1cnc(NC#N)nc1C(=O)Nc1cccc(Cl)c1    > 100 µM (inactive)
2) COC(=O)c1cc(CC2Cc3cc4c(cc3C2=O)CCC4)cc2c1CCC2 (configuration not stated)    > 100 µM (inactive)
3) CCN(CC)c1cccc2c1C1(O)CCC3(CC21)OCCCCO3 (configuration not stated)    50.8 µM (inactive)
4) CCOC(=O)C12CCCC1(O)N(NC(=O)OC(C)(C)C)C(C)=C2C(=O)OC (configuration not stated)    > 100 µM (inactive)
5) CN(Cc1cccc2ccsc12)/N=C\c1ccc(Cl)cc1    > 100 µM (inactive)
6) Cc1[nH]c2ccccc2c1/C=N/c1ccc(/N=C/c2c(C)[nH]c3ccccc23)cc1    19.1 µM (inactive)
7) O=C(Cc1nc2ccccc2s1)C(=O)Nc1ccc(Cl)cc1    > 100 µM (inactive)
8) C[n+]1ccc(Nc2ccc(NC(=O)c3ccc(Nc4cc[n+](C)c5ccc([N+](=O)[O-])cc45)cc3[N+](=O)[O-])cc2)cc1    > 39.7 µM (inactive)
9) O=C(/C=C/c1ccccc1)NC1C=Nc2ccc([N+](=O)[O-])cc2NC1=O (configuration not stated)    22.7 µM (inactive)
10) COc1cc(/C=C/c2nc(NC(=S)Nc3ccccc3)nnc2C)cc(OC)c1OC    37.2 µM (inactive)
11) COC(=O)C1=Nc2c(C)nn(-c3ccccc3)c2N=C(c2ccccc2)C1    > 10 µM (inactive)
12) CS(=O)(=O)CS(=O)(=O)OCCCl    37.8 µM (inactive)

The reported measurements were obtained from ChEMBL document CHEMBL1201862.
